- System: NCI-H23 lung
- TEST_DETAILS: NCI-60 one-dose screen, 48 h (100 = growth as untreated, 0 = no growth, -100 = all killed)
- STUDY_CONDITIONS: 10 µM unless noted
This is part of a sample that, as a whole, favours compounds with a hit. Of some 83,000 tested, about 20% had one in any assay.
Returns one of 1.0 or 0.0; 1.0 when growth is >= 70%.

CCC(=O)c1c2c(c3ccc4c5ccccc5ccc4n13)C(=O)c1ccccc1C2=O :: 0.0
COc1ccc(C(=O)c2c(N)c(C#N)cn2-c2ccc([N+](=O)[O-])cc2)cc1 :: 1.0
Cc1ccc2nc(COc3ccc(C(=O)NNC(=O)Nc4ccc(Cl)c(C(F)(F)F)c4)cc3)[nH]c2c1 :: 0.0

Can COc1cc(CNC(=O)[C@]23CCC(C)(C)CC2C2=CCC4[C@@]5(C)CCC(OC(C)=O)C(C)(C)C5CC[C@@]4(C)[C@]2(C)CC3)ccc1OCc1cn(-c2ccc(Cl)cc2Cl)nn1 (stereo partly drawn) be said to have growth at or above 70%?
1.0

Can `Cc1ccc(C(=O)Nc2cccc(C(=O)NC(=S)Nc3ccc(S(N)(=O)=O)cc3)c2)cc1` be said to have growth at or above 70%?
1.0

Can `Cn1cc(Nc2ncnc(-c3ccc(N4CCCC4)c(C#N)c3)n2)cn1` be said to have growth at or above 70%?
1.0
